System: DU-145
protocol_summary: NCI tumour cell line growth inhibition, 48 h
Activity calls are given as the source filed them. Rule as the data show it: active = GI50 up to about 1.1 µM and inactive = higher.
Valid outcomes are listed here; reply with one: active, inactive

The examples below pair each entry with its known result.
molecule: O=c1oc2c(ccc3ccccc32)cc1C1=CSC2=NCCN12
assigned_class: inactive
--
molecule: COc1ccccc1NC(=O)CC(=O)N1N=C(N2c3ccccc3Sc3ccccc32)CC1c1ccccc1 (stereo unspecified)
assigned_class: inactive
--
molecule: OC1(c2cc3ccccc3s2)CCCCC1
assigned_class: inactive

Req: Look up the recorded call for C[C@@]1(O)C[C@@H](N2C(=O)O[C@@H](c3ccccc3)[C@H]2c2ccccc2)[C@@H]1COCc1ccccc1 in this test.
Resp: inactive

Req: Look up the recorded call for Nn1c(CCCCCCCCc2nnc(COc3ccc(Cl)cc3)n2N)nnc1COc1ccc(Cl)cc1 in this test.
Resp: inactive

Req: Look up the recorded call for Cc1nn(-c2ccccc2)c2nc3c(c(C)nn3-c3ccccc3)c(-c3ccccc3Br)c12 in this test.
Resp: inactive

Req: Look up the recorded call for COC(=O)c1c(C)cccc1C1CN=NC12Cc1ccc(C)c(C)c1C2=O (stereo unspecified) in this test.
Resp: inactive

Req: Look up the recorded call for Cc1ccc2nc(CC(=O)c3ccc4ccccc4c3)c(O)nc2c1 in this test.
Resp: inactive

Req: Look up the recorded call for C[n+]1c(-c2ccc(/C=N/Nc3ccnc(N/N=C/c4ccc(-c5cn6ccsc6[n+]5C)cc4)n3)cc2)cn2ccsc21 in this test.
Resp: inactive

Req: Look up the recorded call for Clc1ccc2c(c1)N(CCCN1CCCC13CCCCC3)c1ccccc1S2 in this test.
Resp: inactive

Entry source: ChEMBL document CHEMBL1201862
